Target: human NaV 1.8 (Homo sapiens)
Sequence (Q9Y5Y9 126-1722 limits assumed): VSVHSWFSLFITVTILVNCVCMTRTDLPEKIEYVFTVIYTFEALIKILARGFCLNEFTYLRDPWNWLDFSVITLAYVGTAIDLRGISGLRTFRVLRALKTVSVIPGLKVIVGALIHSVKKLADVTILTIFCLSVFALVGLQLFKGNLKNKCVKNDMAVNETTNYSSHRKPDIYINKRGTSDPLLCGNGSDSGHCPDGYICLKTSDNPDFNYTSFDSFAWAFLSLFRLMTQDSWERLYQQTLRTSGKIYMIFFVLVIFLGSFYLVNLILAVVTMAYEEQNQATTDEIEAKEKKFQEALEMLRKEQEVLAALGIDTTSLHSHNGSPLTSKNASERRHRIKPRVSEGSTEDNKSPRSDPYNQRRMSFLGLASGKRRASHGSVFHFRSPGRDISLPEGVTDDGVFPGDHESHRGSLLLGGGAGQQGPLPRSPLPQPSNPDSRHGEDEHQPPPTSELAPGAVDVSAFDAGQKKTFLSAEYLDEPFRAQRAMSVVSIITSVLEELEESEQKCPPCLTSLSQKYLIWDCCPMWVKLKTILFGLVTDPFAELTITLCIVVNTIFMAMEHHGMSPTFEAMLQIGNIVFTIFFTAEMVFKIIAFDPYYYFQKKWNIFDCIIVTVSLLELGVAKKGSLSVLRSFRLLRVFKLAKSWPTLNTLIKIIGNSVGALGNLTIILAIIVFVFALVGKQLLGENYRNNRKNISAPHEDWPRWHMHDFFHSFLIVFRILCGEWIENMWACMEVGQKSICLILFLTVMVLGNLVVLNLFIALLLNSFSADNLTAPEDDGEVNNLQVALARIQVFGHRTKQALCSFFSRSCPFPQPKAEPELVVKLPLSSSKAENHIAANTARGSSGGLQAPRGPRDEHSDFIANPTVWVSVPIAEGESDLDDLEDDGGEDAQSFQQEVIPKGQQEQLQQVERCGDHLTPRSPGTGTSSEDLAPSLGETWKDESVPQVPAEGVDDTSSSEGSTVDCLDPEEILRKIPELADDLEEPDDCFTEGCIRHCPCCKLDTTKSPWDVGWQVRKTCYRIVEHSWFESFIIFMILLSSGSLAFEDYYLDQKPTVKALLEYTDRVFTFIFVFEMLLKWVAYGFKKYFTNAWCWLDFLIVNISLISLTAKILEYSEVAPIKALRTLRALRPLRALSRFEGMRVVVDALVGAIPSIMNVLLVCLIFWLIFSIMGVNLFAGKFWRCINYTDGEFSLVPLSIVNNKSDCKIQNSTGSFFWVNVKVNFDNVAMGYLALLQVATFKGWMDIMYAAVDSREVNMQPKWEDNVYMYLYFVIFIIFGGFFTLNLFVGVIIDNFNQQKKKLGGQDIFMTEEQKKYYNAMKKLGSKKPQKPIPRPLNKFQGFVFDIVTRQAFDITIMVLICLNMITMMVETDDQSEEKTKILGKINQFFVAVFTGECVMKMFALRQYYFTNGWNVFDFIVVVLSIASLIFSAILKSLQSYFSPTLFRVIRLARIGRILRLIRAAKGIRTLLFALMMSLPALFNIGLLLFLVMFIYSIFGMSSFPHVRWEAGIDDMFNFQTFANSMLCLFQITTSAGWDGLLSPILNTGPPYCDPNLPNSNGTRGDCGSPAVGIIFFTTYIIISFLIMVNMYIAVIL
Assay: E-VIPR Assay Detecting and Measuring NaV Inhibition Properties
Format: cell-based
Settings: HEK cells expressing a truncated form of human NaV 1.8; compound number without "*" (not marked as run in the presence of human serum)
From the text: Sodium ion channels are voltage-dependent proteins that can be activated by inducing membrane voltage changes by applying electric fields. The electrical stimulation instrument and methods of use, referred to as E-VIPR, are described in International Publication No. WO 2002/008748 A3 and C.-J. Huang et al. Characterization of voltage-gated sodium channel blockers by electrical stimulation and fluorescence detection of membrane potential, 24 Nature Biotech. […]
pIC50: −log10 of the molar value.
Kindly supply the reported pIC50 values for the records listed here.

Need pIC50 of `COc1c([C@H]2[C@H](C(=O)Nc3ccnc(C(N)=O)c3)O[C@@](C)(C(F)(F)F)[C@H]2O)ccc(F)c1F` , thanks. 6.00 to 7.00

May I ask what pIC50 has been recorded for `COc1c([C@H]2[C@H](C(=O)Nc3ccnc(C(N)=O)c3)O[C@@](C)(C(F)(F)F)[C@H]2OC)ccc(F)c1C` ? > 8.00

Query: pIC50; subject: `COc1c([C@H]2[C@H](C(=O)Nc3ccc([C@@H](O)CO)nc3)O[C@@](C)(C(F)(F)F)[C@H]2OC)ccc(F)c1C` 7.00 to 8.00

# pIC50 lookup, item `COc1c([C@H]2[C@H](C(=O)Nc3ccnnc3)O[C@@](C)(C(F)(F)F)[C@H]2O)ccc(F)c1F` ≤ 6.00

Any idea what pIC50 was measured for `CCO[C@H]1[C@@H](c2ccc(F)c(F)c2OC)[C@H](C(=O)Nc2ccnc(C(N)=O)c2)O[C@H]1C` ? 6.00 to 7.00

Recorded pIC50 for COc1c([C@H]2[C@H](C(=O)Nc3ccnc(C(N)=O)c3)OC(C)(C)[C@H]2OC)ccc(F)c1F (stereo in doubt) , please? 7.00 to 8.00

What does the record list as pIC50 for `CO[C@H]1[C@@H](c2ccc(F)c(F)c2C)[C@H](C(=O)Nc2ccnc(C(N)=O)c2)O[C@@]1(C)C(F)(F)F` ? > 8.00
